These measurements were taken from patent US6825191B2.

Let's look at some compounds and their measured IC50.
# subject-of-test: activated human blood coagulation factor X (Homo sapiens, UniProt P00742)
# Construct: purchased Enzyme Research Co
# Sequence (P00742 235-488 limits assumed): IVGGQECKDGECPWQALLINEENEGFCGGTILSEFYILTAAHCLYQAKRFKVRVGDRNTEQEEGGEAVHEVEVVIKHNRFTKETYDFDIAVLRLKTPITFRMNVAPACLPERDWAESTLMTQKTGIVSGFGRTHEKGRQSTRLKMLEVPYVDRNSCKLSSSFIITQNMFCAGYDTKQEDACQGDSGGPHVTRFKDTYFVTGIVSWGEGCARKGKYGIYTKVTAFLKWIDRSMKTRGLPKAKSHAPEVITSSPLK
# Sequence (P00742 41-179 partner limits assumed): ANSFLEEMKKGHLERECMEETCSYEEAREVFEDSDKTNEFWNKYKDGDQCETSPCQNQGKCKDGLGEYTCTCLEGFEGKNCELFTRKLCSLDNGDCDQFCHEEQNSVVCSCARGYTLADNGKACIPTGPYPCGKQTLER
# experiment-description: Determination of activity of inhibiting the activated blood-coagulation factor X (chromogenic substrate, initial rate)
# Format: biochemical
# details: negative logarithm of concentration inhibiting 50% of initial rate; tris hydrochloride buffer pH 8.4, room temperature; read-out: Activity of inhibiting activated blood coagulation factor X (pIC50) (converted)
Numeric only. Scale: nM

Consider the worked cases shown below.
- compound: "N=C(c1ccc(CN2C(=O)CN(C(=O)c3ccc(Cl)cc3)Cc3ccccc32)cc1)N1CC=CC1.O=C(O)C(F)(F)F [Compd. of Ex. 107, trifluoroacetate]"
  reported-endpoint: "IC50"
  assay-value: 50.1
- compound: "CN1CCN=C1c1ccc(CN2C(=O)CN(C(=O)c3ccc(Cl)cc3)Cc3ccccc32)cc1.O=C(O)C(F)(F)F [Compd. of Ex. 125, trifluoroacetate]"
  reported-endpoint: "IC50"
  assay-value: 251
- compound: "CC(C)N1CCC(CN2C(=O)CN(C(=O)c3ccc(Cl)cc3)Cc3ccccc32)CC1.O=C(O)C(F)(F)F [Compd. of Ex. 142, trifluoroacetate]"
  reported-endpoint: "IC50"
  assay-value: 794
- compound: "O=C(O)C(F)(F)F.O=C(c1ccc(Br)cc1)N1CC(=O)N(CC2CCN(c3ccncc3)CC2)c2ccccc2C1 [Compd. of Ex. 9, trifluoroacetate]"
  reported-endpoint: "IC50"
  assay-value: 501

Consider the compound shown here: O=C(O)C(F)(F)F.O=C(c1ccc(Cl)cc1)N1CC(=O)N(CC2CCN(C3CCCCC3)CC2)c2ccccc2C1 [Compd. of Ex. 143, mono(trifluoroacetate)] What is its recorded IC50? 316

----------
# subject-of-test: activated human blood coagulation factor X (Homo sapiens, UniProt P00742)
# Construct: purchased Enzyme Research Co
# experiment-description: Determination of activity of inhibiting the activated blood-coagulation factor X (chromogenic substrate, initial rate)
# Type: biochemical
# details: negative logarithm of concentration inhibiting 50% of initial rate; tris hydrochloride buffer pH 8.4, room temperature
# Procedure: Determination of Activity of inhibiting the Activated Blood-coagulation Factor X 130 μl of 100 mM tris hydrochloride buffer adjusted to pH 8.4 was added to 10 μl of an aqueous solution of a compound to be tested. […] The a absorbance was determined and then the initial reaction rate was determined. […] The absorbance was determined with MICROPLATE READER Model 3550-UV (a product of BIO RAD) at a wave length of 405 nm at intervals of 15 seconds for 16 minutes.
reported-endpoint: Activity of inhibiting activated blood coagulation factor X (pIC50)
Write no unit; give the number alone.

Consider the worked cases shown below.
- smiles-record: "CCOC(=O)c1ccc2c(c1)N(Cc1ccc(C3=NCCN3C)cc1)C(=O)CN(C(=O)c1ccc(Cl)cc1)C2.O=C(O)C(F)(F)F"
  assay-value: 6.5
- smiles-record: "CN1CCN=C1c1ccc(CN2C(=O)CN(C(=O)c3ccc(Cl)cc3)Cc3ccc(C(=O)O)cc32)cc1.O=C(O)C(F)(F)F"
  assay-value: 7.1
- smiles-record: "CN1CC[N+](C)=C1N1CCC(CCN2C(=O)CN(C(=O)c3ccc(Cl)cc3)Cc3ccccc32)CC1.O=C([O-])C(F)(F)F"
  assay-value: 7.1
- smiles-record: "CC(=N)N1CCC(Oc2ccc(CN3C(=O)CN(C(=O)c4ccc(Cl)cc4)Cc4ccc(C(=O)O)cc43)cc2)CC1.O=C(O)C(F)(F)F"
  assay-value: 6.9

Switching to the query record.
Consider the compound shown here: CC(=N)N1CCC(Oc2ccc(CN3C(=O)CN(C(=O)c4ccc(Cl)cc4)Cc4c(Cl)cccc43)cc2)CC1.O=C(O)C(F)(F)F What is its recorded Activity of inhibiting activated blood coagulation factor X (pIC50)? 6.7
